- Test system: HeLa
- testProtocol: Cytotoxicity against Homo sapiens (human) HeLa cells assessed as growth inhibition after 48 hr by MTT assay
- Type: functional, cell-based
Would you kindly list IC50 for each of these compounds?
Give bare numbers, in µM.

Worked examples, 5 compounds total:
# smilesStr, IC50, µM
rows = [
    ("O=C(/C=C/c1ccccc1Br)c1ccc[nH]1", 44),
    ("O=C(/C=C/c1ccc(Cl)cc1)c1ccc[nH]1", 25),
    ("O=C(/C=C/c1ccc(Cl)cc1)c1ccco1", 38),
    ("O=C(/C=C/c1cc([N+](=O)[O-])ccc1Cl)c1ccc[nH]1", 68),
    ("O=C(/C=C/c1cccc([N+](=O)[O-])c1)c1ccco1", 22),
]

Dear colleague, could you please provide IC50 for the compounds listed below?
1. O=C(/C=C/c1cccc([N+](=O)[O-])c1)c1ccc[nH]1
2. O=C(/C=C/c1ccc(Cl)cc1Cl)c1ccc[nH]1
3. O=C(/C=C/c1ccc([N+](=O)[O-])cc1)c1ccc[nH]1
4. CN(C)c1ccc(/C=C/C(=O)c2ccco2)cc1
5. COc1cccc(/C=C/C(=O)c2ccc[nH]2)c1
6. O=C(/C=C/c1ccccc1Cl)c1ccco1

a:
32
26
26
20
30
26

// data source = ChEMBL document CHEMBL3044639
